Values compiled from the supplement of paper PMC9112550.

- Tested on: Escherichia coli TOP10;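 further: peptides expressed intracellularly from a pBAD plasmid library in pooled LB shake-flask culture, induced with 0.3% L-arabinose, DNA abundance read by NGS, three biological replicates, DESeq2 with apeglm shrinkage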
- Measurement description: shrunken log2 fold change of peptide-encoding DNA abundance (4.5 h post-induction vs induction); higher = less antimicrobial activity (less host growth inhibition)
- Assay setup: time post-induction: 4.5 h; library: site-saturation at positions 5, 18, 19, 20
Listed below: shrunken log2 fold change values for each entry.
Result type: shrunken log2 fold change

>>> df
          ordered_residues  measured_result
0  RRIRQRPPRLPRPRPRPPDLPRP            0.404
1  RRIRARPPRLPRPRPRPYARPRP           -0.118
2  RRIRFRPPRLPRPRPRPLNPPRP             -0.1
3  RRIRERPPRLPRPRPRPIEVPRP         -0.00196
4  RRIRQRPPRLPRPRPRPQNFPRP          -0.0918
